- tested target: Oxysterols receptor LXR-alpha (Homo sapiens)
- test summary: Activity against LXR alpha transiently transfected in HEK293 cells
Recorded measurements of log10 of EC50, one per entry
Units before log transform: nM; reported quantity: EC50; transform: log10.

Some compounds with recorded log10 of EC50:
{"columns": ["compound", "tested target", "value measured"],
 "data": [
  ["CC(C)COC(=O)N(C)c1ccc(C(O)(C(F)(F)F)C(F)(F)F)cc1", "Oxysterols receptor LXR-alpha (Homo sapiens)", 2.00],
  ["CN(c1ccc(C(O)(C(F)(F)F)C(F)(F)F)cc1)S(=O)(=O)c1cccc(-c2ccccc2)c1", "Oxysterols receptor LXR-alpha (Homo sapiens)", 1.48],
  ["CN(c1ccc(C(O)(C(F)(F)F)C(F)(F)F)cc1)S(=O)(=O)c1cccc(C#N)c1", "Oxysterols receptor LXR-alpha (Homo sapiens)", 1.30],
  ["CN(c1ccc(C(C)(O)C(F)(F)F)cc1)S(=O)(=O)c1ccccc1 (centres undefined)", "Oxysterols receptor LXR-alpha (Homo sapiens)", 3.70],
  ["CN(c1ccc(C(O)(C(F)(F)F)C(F)(F)F)cc1)S(=O)(=O)c1ccc(C#N)cc1", "Oxysterols receptor LXR-alpha (Homo sapiens)", 3.30]
]}

INPUT: Given CN(c1ccc(C(O)(C(F)(F)F)C(F)(F)F)cc1)S(=O)(=O)c1ccccc1C#N , respond with its log10 of EC50.
OUTPUT: 2.85

---

- tested target: Oxysterols receptor LXR-alpha (Homo sapiens, UniProt Q13133)
- Sequence (Q13133 whole entry): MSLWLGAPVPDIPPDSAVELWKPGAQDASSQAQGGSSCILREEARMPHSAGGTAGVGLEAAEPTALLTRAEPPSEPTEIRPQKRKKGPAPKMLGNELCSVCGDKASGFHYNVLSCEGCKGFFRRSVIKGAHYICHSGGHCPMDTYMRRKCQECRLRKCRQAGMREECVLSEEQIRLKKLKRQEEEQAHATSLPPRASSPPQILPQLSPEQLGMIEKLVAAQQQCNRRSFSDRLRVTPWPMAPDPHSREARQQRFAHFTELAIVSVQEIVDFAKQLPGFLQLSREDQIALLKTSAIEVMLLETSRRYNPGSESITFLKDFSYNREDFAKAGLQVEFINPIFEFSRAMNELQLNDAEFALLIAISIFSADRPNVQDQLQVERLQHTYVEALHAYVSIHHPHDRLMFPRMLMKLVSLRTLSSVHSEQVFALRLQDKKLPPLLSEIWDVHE
- test summary: Activity against LXR alpha transiently transfected in HEK293 cells
attribute measured: pEC50
pEC50 here is simply -log10 of the concentration when that concentration is written in mol/L.

{"columns": ["input smiles", "pEC50"],
 "data": [
  ["CN(C(=O)c1ccccc1)c1ccc(C(O)(C(F)(F)F)C(F)(F)F)cc1", 7.00],
  ["O=S(=O)(c1ccccc1)N1CCOc2cc(C(O)(C(F)(F)F)C(F)(F)F)ccc21", 7.00]
]}

INPUT: Given CN(C(=O)c1ccc(C(O)(C(F)(F)F)C(F)(F)F)cc1)c1ccccc1 , respond with its pEC50.
OUTPUT: 6.70

INPUT: Given COC(c1ccc(N(C)S(=O)(=O)c2ccccc2)cc1)(C(F)(F)F)C(F)(F)F , respond with its pEC50.
OUTPUT: 6.00

---

- test summary: Half life in dog at 5 mg/kg, po
- Format: ADME, organism-based, Canis lupus familiaris
- Set-up: dose 5 mg/kg, route oral
- assay setup: in vivo
attribute measured: half-life (h)
The figure you give is taken to be in h; do not add the unit.

INPUT: Given O=S(=O)(c1ccccc1)N(CC(F)(F)F)c1ccc(C(O)(C(F)(F)F)C(F)(F)F)cc1 , respond with its half-life.
OUTPUT: 5.8
